Where these numbers come from: paper PMC6896740

# MEASUREMENT PROTOCOL: clinical
# EXPERIMENTAL PARAMETERS: human, in vivo, 3 mg, t½, mean ± SD
# Description: Study 1 (B7921001; NCT02224651) was a 96-day, phase 1, within-cohort, randomized, double-blind, sponsor-open, placebo-substitution, five-period crossover, SAD study in healthy adult subjects (Fig. 1a). […] For both studies, samples of blood (and urine in study 2) were taken for evaluation of PK/PD parameters (see Additional file 1: Supplemental Methods). […] The lower limit of quantification for PF-06650833 in plasma was 0.0500 ng/mL. […]

[
  {
    "COMPOUND STRING": "CC[C@@H]1[C@H](F)C(=O)N[C@@H]1COc1nccc2cc(C(N)=O)c(OC)cc12",
    "UNIT INFO": "min",
    "half-life": 140
  }
]

###

# MEASUREMENT PROTOCOL: Study 2 (MAD) plasma and urine pharmacokinetics
# Type: in vivo, human
# EXPERIMENTAL PARAMETERS: human, plasma, oral, 250 mg, IR 250 mg BID, day 1, fed (standard meal); read-out: Cmax, geometric mean (%CV)
READOUT LABEL: Cmax (ng/mL)

[
  {
    "MOLECULE": "CC[C@@H]1[C@H](F)C(=O)N[C@@H]1COc1nccc2cc(C(N)=O)c(OC)cc12 [PF-06650833]",
    "VALUE OBSERVED": 226
  }
]
